Listing of entries alongside the reported PBM E-score.
Target: Stb5 (UniProt P38699)
Sequence: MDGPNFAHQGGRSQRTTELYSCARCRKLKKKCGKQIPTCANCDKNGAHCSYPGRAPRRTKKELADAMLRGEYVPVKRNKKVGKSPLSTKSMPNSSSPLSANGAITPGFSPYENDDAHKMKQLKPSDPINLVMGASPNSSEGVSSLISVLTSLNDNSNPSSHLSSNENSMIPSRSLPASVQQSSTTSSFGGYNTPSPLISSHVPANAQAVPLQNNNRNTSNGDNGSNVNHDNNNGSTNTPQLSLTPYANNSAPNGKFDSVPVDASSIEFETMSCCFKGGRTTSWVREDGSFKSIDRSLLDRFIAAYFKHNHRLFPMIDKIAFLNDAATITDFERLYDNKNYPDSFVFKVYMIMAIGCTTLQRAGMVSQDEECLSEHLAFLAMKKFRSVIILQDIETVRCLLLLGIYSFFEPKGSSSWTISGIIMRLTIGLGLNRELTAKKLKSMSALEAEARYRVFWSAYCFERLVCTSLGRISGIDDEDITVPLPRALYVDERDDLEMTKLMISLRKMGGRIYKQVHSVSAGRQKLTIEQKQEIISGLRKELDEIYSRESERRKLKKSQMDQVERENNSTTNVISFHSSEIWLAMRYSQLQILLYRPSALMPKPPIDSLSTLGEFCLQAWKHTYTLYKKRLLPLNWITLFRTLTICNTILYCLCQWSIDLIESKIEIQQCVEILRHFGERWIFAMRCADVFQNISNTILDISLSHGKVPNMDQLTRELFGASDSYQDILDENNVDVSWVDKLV
Assay: PBM E-score (8-mer binding enrichment) (E-score (-0.5 to 0.5)); higher = stronger / more preferred TF binding
Conditions: protein concentration: 200 nM; construct: GST-full length
Whole data set: some 33,000 sequences, median “E-score (-0.5 to 0.5)” near -0.054, cut for the highest 2% near 0.35. The full list was thinned out, with the highest values kept by preference.
Field format: numeric only.

{"columns": ["sequence_record", "PBM E-score"],
 "data": [
  ["AACCGGAG", 0.302],
  ["CAAGTCCG", 0.356],
  ["CAAGTCCC", 0.00375],
  ["AGGCGATC", -0.302],
  ["CAGGCGAA", -0.257]
]}

I'd like to know its PBM E-score. The sequence in question is AGGGTGTA
-0.236

I'd like to know its PBM E-score. The sequence in question is ACCGCCGG
0.414

I'd like to know its PBM E-score. The sequence in question is AGCGCCGG
0.376

I'd like to know its PBM E-score. The sequence in question is AACGTCCG
0.375

I'd like to know its PBM E-score. The sequence in question is ACACCGAC
0.466

I'd like to know its PBM E-score. The sequence in question is AGACCGAT
0.272

I'd like to know its PBM E-score. The sequence in question is AGGGCAGG
-0.205

I'd like to know its PBM E-score. The sequence in question is CGCTTACG
0.123

I'd like to know its PBM E-score. The sequence in question is CGCCGCTA
0.412

I'd like to know its PBM E-score. The sequence in question is CGGCGGGA
0.347

I'd like to know its PBM E-score. The sequence in question is GCGGTGGA
0.177

I'd like to know its PBM E-score. The sequence in question is ATTCAGCC
-0.129

I'd like to know its PBM E-score. The sequence in question is ATGATGGC
-0.19

I'd like to know its PBM E-score. The sequence in question is AACGCCGG
0.44

I'd like to know its PBM E-score. The sequence in question is CATTTTAG
0.189

I'd like to know its PBM E-score. The sequence in question is CCACCGAG
0.0738

I'd like to know its PBM E-score. The sequence in question is ATCTGGCC
0.0703

I'd like to know its PBM E-score. The sequence in question is GGGGTGTA
0.178

====

Target: Stb5 (UniProt P38699)
Sequence: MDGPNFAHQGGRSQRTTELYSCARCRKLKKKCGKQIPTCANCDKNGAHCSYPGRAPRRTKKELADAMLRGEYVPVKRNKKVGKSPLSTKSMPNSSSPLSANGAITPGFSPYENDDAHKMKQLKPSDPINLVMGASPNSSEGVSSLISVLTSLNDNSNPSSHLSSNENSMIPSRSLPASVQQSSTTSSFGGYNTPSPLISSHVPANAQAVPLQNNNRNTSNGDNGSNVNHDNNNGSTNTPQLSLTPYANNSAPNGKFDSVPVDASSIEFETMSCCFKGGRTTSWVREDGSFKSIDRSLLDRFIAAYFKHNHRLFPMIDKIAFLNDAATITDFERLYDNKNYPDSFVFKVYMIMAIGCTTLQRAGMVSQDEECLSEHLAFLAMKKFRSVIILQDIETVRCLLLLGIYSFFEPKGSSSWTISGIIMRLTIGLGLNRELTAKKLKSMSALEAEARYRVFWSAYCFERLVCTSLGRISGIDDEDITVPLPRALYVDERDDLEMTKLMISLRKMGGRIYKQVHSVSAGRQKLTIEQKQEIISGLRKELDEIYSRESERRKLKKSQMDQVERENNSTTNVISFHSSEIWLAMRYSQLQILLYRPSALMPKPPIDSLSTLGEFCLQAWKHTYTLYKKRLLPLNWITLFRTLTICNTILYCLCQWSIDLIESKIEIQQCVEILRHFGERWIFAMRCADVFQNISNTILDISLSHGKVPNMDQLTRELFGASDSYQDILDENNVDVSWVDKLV
Experiment: PBM E-score (8-mer binding enrichment) (E-score (-0.5 to 0.5)); higher = stronger / more preferred TF binding
Conditions: protein concentration: 200 nM; construct: GST-full length
Over roughly 33,000 sequences, “E-score (-0.5 to 0.5)” has its median near -0.054; the highest 2% begin near 0.35. What follows is part of a selection rich in the highest values, with near analogues and random picks from the rest.
Answer false if PBM E-score is under 0.002, and true if it is 0.002 or more.

Illustrative cases are given below, each with its answer.
{"columns": ["sequence_record", "class_label"],
 "data": [
  ["GTTTGGGA", "false"],
  ["CGACGGAA", "true"],
  ["AGGCGCGA", "false"],
  ["CAGCAGGA", "false"],
  ["AACATATT", "false"]
]}

Could you tell me if the measured PBM E-score of CGGCGCCA reaches 0.002 or more?
true

Could you tell me if the measured PBM E-score of CGAGACTA reaches 0.002 or more?
false

====

Biological target: Stb5 (UniProt P38699)
Sequence: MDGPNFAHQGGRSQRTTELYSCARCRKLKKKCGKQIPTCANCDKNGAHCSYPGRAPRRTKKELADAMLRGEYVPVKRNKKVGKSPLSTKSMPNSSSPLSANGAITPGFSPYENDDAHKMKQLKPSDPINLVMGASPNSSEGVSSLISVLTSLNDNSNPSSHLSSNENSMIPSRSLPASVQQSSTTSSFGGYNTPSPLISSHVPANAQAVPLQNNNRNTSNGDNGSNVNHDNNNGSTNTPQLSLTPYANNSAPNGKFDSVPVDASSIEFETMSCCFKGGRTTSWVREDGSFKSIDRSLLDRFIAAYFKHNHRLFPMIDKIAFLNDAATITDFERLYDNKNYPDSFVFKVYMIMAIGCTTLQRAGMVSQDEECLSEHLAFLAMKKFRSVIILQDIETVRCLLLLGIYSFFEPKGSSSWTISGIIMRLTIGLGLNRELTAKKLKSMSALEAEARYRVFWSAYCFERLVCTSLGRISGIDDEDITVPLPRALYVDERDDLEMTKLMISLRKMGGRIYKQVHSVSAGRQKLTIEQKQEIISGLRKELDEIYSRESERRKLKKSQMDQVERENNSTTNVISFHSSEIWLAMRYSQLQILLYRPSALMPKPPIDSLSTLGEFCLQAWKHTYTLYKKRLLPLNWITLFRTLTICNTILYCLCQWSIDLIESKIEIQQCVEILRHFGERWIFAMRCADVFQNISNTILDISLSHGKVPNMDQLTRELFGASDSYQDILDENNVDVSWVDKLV
Experiment: PBM E-score (8-mer binding enrichment) (E-score (-0.5 to 0.5)); higher = stronger / more preferred TF binding
Settings: protein concentration: 200 nM; construct: GST-full length
Whole data set: some 33,000 sequences, median “E-score (-0.5 to 0.5)” near -0.054, cut for the highest 2% near 0.35. Shown is part of a subset that was picked to be rich in the highest values.
measured_attribute: PBM E-score
Field format: numeric only.

# count of solved cases: 2
{"columns": ["sequence_record", "meas_value"],
 "data": [
  ["CCAACCTC", -0.111],
  ["GAGTAGCC", -0.178]
]}

We now examine a further sequence.
I'd like to know its PBM E-score. The sequence in question is TCGAAACA
-0.233
